Tested on: MCF-7 cell line
RUN_DESCRIPTION: MTT cytotoxicity test, MCF-7 cell line
Type: cell-based
CONDITION_SET: Homo sapiens, MCF7, read-out: IC50 (μM) MCF-7
Let's look at some compounds and their measured IC50.
Give just the number in µM; leave the unit off.

[
  {
    "SMILES_NOTATION": "COc1ccc(C(=O)Nc2nnc(SCC(=O)Nc3ccc(C(F)(F)F)cc3)s2)cc1",
    "OBSERVED_PROPERTY": "IC50",
    "UNIT_INFO": "µM",
    "READOUT_NUMBER": 43.1
  }
]

**Q:** So what does the record say about IC50 for "NS(=O)(=O)c1ccc(NC(=O)CSc2nnc(NC(=O)c3ccc(Cl)c(Cl)c3)s2)cc1" ?
**A:** 11

**Q:** Given "O=C(CSc1nnc(NC(=O)c2ccc(Cl)cc2)s1)Nc1ccc(Cl)cc1" , state its recorded IC50.
**A:** 12.1

**Q:** What does the data say about its IC50? Entry: "O=C(CSc1nnc(NC(=O)c2ccc(Cl)cc2)s1)Nc1ccc(C(F)(F)F)cc1"
**A:** 27.1

**Q:** Would you kindly share the measured IC50 for "O=C(CSc1nnc(NC(=O)c2ccc(F)cc2)s1)Nc1ccc(C(F)(F)F)cc1" ?
**A:** 30.5

**Q:** Give its IC50 value. Item: "NS(=O)(=O)c1ccc(NC(=O)CSc2nnc(NC(=O)c3ccc(Cl)cc3)s2)cc1"
**A:** 2.38

---

Tested on: NIH3T3 cells
RUN_DESCRIPTION: MTT cytotoxicity test, NIH3T3 cell line
Type: cell-based
CONDITION_SET: Mus musculus, NIH3T3, read-out: IC50 (μM) NIH3T3
OBSERVED_PROPERTY: IC50 (µM)
API: value field is a number in µM; no unit string.

# count of solved cases: 2
[
  {
    "SMILES_NOTATION": "O=C(CSc1nnc(NC(=O)c2ccc(F)cc2)s1)Nc1ccc(C(F)(F)F)cc1",
    "OBSERVED_PROPERTY": "IC50",
    "READOUT_NUMBER": 46.2
  },
  {
    "SMILES_NOTATION": "COc1ccc(C(=O)Nc2nnc(SCC(=O)Nc3ccc(C(F)(F)F)cc3)s2)cc1",
    "OBSERVED_PROPERTY": "IC50",
    "READOUT_NUMBER": 47.6
  }
]

Pending compound:
**Q:** Using the record for "O=C(CSc1nnc(NC(=O)c2ccc(Cl)c(Cl)c2)s1)Nc1ccc(C(F)(F)F)cc1" , report its IC50.
**A:** 67.1

---

Property: pIC50; scope: individual compounds
TESTED_TARGET: COX-2 enzyme (Homo sapiens, UniProt P35354)
Sequence (P35354 18-604): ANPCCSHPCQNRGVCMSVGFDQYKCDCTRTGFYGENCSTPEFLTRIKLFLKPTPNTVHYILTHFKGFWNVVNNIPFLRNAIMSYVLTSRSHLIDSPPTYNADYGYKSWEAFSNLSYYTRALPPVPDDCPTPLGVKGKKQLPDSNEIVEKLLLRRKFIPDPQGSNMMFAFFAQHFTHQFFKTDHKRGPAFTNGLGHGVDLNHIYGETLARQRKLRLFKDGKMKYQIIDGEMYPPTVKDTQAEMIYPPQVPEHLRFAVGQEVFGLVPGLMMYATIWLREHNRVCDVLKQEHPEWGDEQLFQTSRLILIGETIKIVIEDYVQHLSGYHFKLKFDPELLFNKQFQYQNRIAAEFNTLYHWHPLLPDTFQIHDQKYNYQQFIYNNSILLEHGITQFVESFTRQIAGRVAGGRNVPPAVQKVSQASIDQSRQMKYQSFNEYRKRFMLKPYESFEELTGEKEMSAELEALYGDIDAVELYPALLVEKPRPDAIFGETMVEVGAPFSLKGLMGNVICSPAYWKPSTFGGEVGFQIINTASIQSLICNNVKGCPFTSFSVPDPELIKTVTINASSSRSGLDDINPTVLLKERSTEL
RUN_DESCRIPTION: biochemical
The scale used: pIC50 is minus the common logarithm of the concentration in molar units.

[
  {
    "COMPOUND": "NS(=O)(=O)c1ccc(NC(=O)CSc2nnc(NC(=O)c3ccc(Cl)cc3)s2)cc1 [3j]",
    "pIC50": 6.72
  },
  {
    "COMPOUND": "O=C(CSc1nnc(NC(=O)c2ccc(Cl)cc2)s1)Nc1ccc(Cl)cc1 [3i]",
    "pIC50": 5.42
  },
  {
    "COMPOUND": "O=C(CSc1nnc(NC(=O)c2ccc(F)cc2)s1)Nc1ccc(Cl)cc1 [3n]",
    "pIC50": 6.14
  }
]

**Q:** What pIC50 value was documented for this compound, O=C(CSc1nnc(NC(=O)c2ccc(Cl)c(Cl)c2)s1)Nc1ccc(Cl)cc1 [3d] ?
**A:** 5.17
